pIC50 values for the compounds below.
System: LTB4 production in porcine or human whole blood
measurement-notes: Whole blood HPLC assay, inhibition of LTB4 production
Assay type: cell-based
assay-setup: 5 point curve, porcine or human whole blood (not specified)
pIC50: −log10 of the molar value.

// solved cases for pIC50 follow
| compound | experimental-value |
| --- | --- |
| COc1cc(CCC(C)(O)C(F)(F)F)ccc1OCc1ccc2ccccc2n1 (centres unmarked) | 6.00 to 7.00 |
| COc1cc(C(O)C(F)(F)F)ccc1Oc1nc2ccccc2s1 (centres unmarked) | < 5.00 |
| CCC(O)(CCc1ccc(Oc2nc3ccccc3s2)c(C(F)(F)F)c1)C(F)(F)F (centres unmarked) | < 5.00 |
| CCC(O)(CCc1ccc(Oc2nc3c(F)cc(F)cc3s2)c(OC)c1)C(F)(F)F (centres unmarked) | < 5.00 |
| CCNC(c1ccc(Oc2nc3ccccc3s2)c(OC)c1)C(F)(F)F (centres unmarked) | 5.00 to 6.00 |
| CCC(C)(O)CCc1ccc(Oc2nc3ccccc3o2)cc1 (centres unmarked) | 5.00 to 6.00 |

// next entry
q: Return value of pIC50 for input CCC(O)(CCc1ccc(Oc2nc3ccc(S(C)(=O)=O)cc3s2)c(OC)c1)C(F)(F)F (centres unmarked) , no commentary.
a: < 5.00

* * *

experimental-target: recombinant human leukotriene A4 hydrolase enzyme (Homo sapiens)
Construct: purchased Cayman Chemical 10007817
measurement-notes: Amino-peptidase assay, alanine-4-nitroanalide
Assay type: biochemical
assay-setup: negative values = augmented peptidase activity, read-out: % Inhibition aminopeptidase-Alanine-4-nitroanalide activity of LTA4H (3 μM)
property-label: inhibition at 3 µM

Known inhibition at 3 µM results, listed for orientation:
| compound | experimental-target | inhibition at 3 µM |
| --- | --- | --- |
| CCC(=O)CCc1ccc(Oc2nc3ccccc3s2)c(F)c1 | recombinant human leukotriene A4 hydrolase enzyme (Homo sapiens) | < 25% |
| CC(C)(O)c1ccc(Oc2nc3ccccc3s2)cc1 | recombinant human leukotriene A4 hydrolase enzyme (Homo sapiens) | > 75% |
| CCC(CCc1ccc(Oc2nc3ccccc3s2)c(OC)c1)N1CCN(C)CC1 (stereo not shown) | recombinant human leukotriene A4 hydrolase enzyme (Homo sapiens) | < 25% |

q: Look up and report measured inhibition at 3 µM (recombinant human leukotriene A4 hydrolase enzyme (Homo sapiens)) for the following compound: COc1cc(CCC(C)(O)C(F)(F)F)ccc1OCc1ccc2ccccc2n1 (stereo not shown)
a: < 25%

q: Give inhibition at 3 µM for CCC(O)(CCc1ccc(Oc2nc3ccccc3n2C)c(OC)c1)C(F)(F)F (stereo not shown) tested on recombinant human leukotriene A4 hydrolase enzyme (Homo sapiens).
a: 75%

q: Give inhibition at 3 µM; test system recombinant human leukotriene A4 hydrolase enzyme (Homo sapiens); compound CNC(c1ccc(Oc2nc3ccccc3s2)cc1)C(F)(F)F (stereo not shown)
a: 70 to 90%

q: Report the value of inhibition at 3 µM obtained on recombinant human leukotriene A4 hydrolase enzyme (Homo sapiens) for CCC(O)(CCc1ccc(Oc2nc3ccccc3s2)c(F)c1)C(F)(F)F (stereo not shown) .
a: > 75%

q: Fetch value of inhibition at 3 µM on recombinant human leukotriene A4 hydrolase enzyme (Homo sapiens) for CCC(CCc1ccc(Oc2nc3ccccc3s2)cc1)N1CCCC1 (stereo not shown) .
a: 50 to 75%

q: Enter inhibition at 3 µM (test system recombinant human leukotriene A4 hydrolase enzyme (Homo sapiens)) for CC(O)(CCc1ccc(Oc2nc3ccccc3o2)cc1)c1ccccc1 (stereo not shown)
a: 50 to 75%

* * *

Tested on: LTB4 production in porcine or human whole blood
measurement-notes: Whole blood HPLC assay, inhibition of LTB4 production
Assay type: cell-based
assay-setup: 5 point curve, porcine or human whole blood (not specified)
property-label: IC50

| compound | IC50 |
| --- | --- |
| CC(O)c1ccc(Oc2nc3ccccc3s2)cc1 (stereo not shown) | > 10 µM |
| CC(O)(c1ccc(OCc2ccc3ccccc3n2)cc1)C(F)(F)F (stereo not shown) | 0.1 to 1 µM |
| COc1cc(CCC(O)c2ccccc2)ccc1Oc1nc2ccccc2s1 (stereo not shown) | > 10 µM |

Could you now look at the following compound, please?
q: Provide only the value of recorded IC50 for CC(O)(c1ccc(Oc2nc3ccccc3s2)cc1)C(F)(F)F (stereo not shown)
a: > 10 µM

* * *

inhibition at 3 µM by entry:
experimental-target: recombinant human leukotriene A4 hydrolase enzyme (Homo sapiens, UniProt P09960)
Construct: purchased Cayman Chemical 10007817
Sequence (P09960 1-611): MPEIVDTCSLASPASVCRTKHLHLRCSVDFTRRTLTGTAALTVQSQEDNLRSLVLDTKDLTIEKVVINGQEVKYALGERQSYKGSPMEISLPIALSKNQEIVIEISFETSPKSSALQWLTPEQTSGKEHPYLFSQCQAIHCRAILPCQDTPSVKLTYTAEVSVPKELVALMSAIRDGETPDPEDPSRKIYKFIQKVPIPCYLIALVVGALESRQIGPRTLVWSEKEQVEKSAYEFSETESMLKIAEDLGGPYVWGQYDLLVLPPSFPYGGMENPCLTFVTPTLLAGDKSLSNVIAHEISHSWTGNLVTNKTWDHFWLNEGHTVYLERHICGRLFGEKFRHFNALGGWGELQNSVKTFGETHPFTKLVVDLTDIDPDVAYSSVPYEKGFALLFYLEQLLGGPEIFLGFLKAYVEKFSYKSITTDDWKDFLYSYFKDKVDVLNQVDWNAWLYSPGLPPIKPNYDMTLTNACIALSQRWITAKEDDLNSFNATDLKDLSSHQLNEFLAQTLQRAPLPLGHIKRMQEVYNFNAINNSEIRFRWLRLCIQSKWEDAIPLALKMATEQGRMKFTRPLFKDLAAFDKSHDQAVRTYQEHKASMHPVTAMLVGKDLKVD
measurement-notes: Amino-peptidase assay, alanine-4-nitroanalide
Format: biochemical
assay-setup: negative values = augmented peptidase activity, read-out: % Inhibition aminopeptidase-Alanine-4-nitroanalide activity of LTA4H (3 μM)

| compound | property-label | experimental-value |
| --- | --- | --- |
| CC(CCc1ccc(OCc2ccc3ccccc3n2)cc1)N1CCCC1 (stereo not shown) [Compound 190] | inhibition at 3 µM | < 25% |
| O=C(O)C1CCCN1Cc1ccc(Oc2nc3ccccc3s2)cc1 (stereo not shown) [Compound 165] | inhibition at 3 µM | 50 to 75% |
| CC(O)(c1ccc(Oc2nc3c(F)cc(F)cc3s2)cc1)C(F)(F)F (stereo not shown) [Compound 181] | inhibition at 3 µM | 0 to 50% |
| CC(O)c1ccc(Oc2nc3c(F)cc(F)cc3s2)cc1 (stereo not shown) [Compound 180] | inhibition at 3 µM | 50 to 75% |
| CCC(O)(CCc1ccc(Oc2nc3ccccc3s2)cc1)C(F)(F)F (stereo not shown) [Compound 150] | inhibition at 3 µM | 25 to 50% |
| c1ccc2sc(Oc3ccc(CN4CCCC4)cc3)nc2c1 [Compound 164] | inhibition at 3 µM | > 75% |

q: Find the measured inhibition at 3 µM of CCC(O)(CCc1ccc(Oc2nc3c(SC)cccc3s2)c(OC)c1)C(F)(F)F (stereo not shown) [Compound 104] and report it.
a: -50 to 100%
